system: L5178YMDR cells; assay: Combination assay with doxorubicin (checkerboard microplate method, MTT); type: cell-based, mouse; settings: drug ratio 23.2:1, with doxorubicin, (CI50 + 2CI75 + 3CI90)/6
Measurement name: CIavg (weighted average CI)
Keep the answer to the number alone.

Reported CIavg (weighted average CI), molecule CC(=O)N[C@H]1CC=C2C3=CC(=O)[C@@H]4C[C@H]5OC(C)(C)O[C@H]5C[C@]4(C)[C@H]3CC[C@@]21C : ____
0.53

Next entry: CC(=O)[C@H]1CC[C@@]2(F)C3=CC(=O)[C@@H]4C[C@H]5OC(C)(C)O[C@H]5C[C@]4(C)[C@H]3CC[C@]12C
0.52

Next entry: CC(=O)N[C@H]1CC[C@@]2(F)C3=CC(=O)[C@@H]4C[C@H]5OC(C)(C)O[C@H]5C[C@]4(C)[C@H]3CC[C@]12C
0.70

Next entry: CC(=O)[C@H]1CC=C2C3=CC(=O)[C@@H]4C[C@H]5OC(C)(C)O[C@H]5C[C@]4(C)[C@H]3CC[C@@]21C
0.46

* * *

For each entry below, report its IC50 at 24 h value.
Experiment: MTT cytotoxicity assay (24 h)
Type: cell-based
Details: human, MRC-5 human embryonal lung fibroblasts; MRC-5, 24 h MTT, n = 3; read-out: Cytotoxicity (IC50 ± SD)
Source text: To assess the compounds’ effect on cell growth and viability, we used two different experimental setups of MTT assay. […] Even though MTT assay is an endpoint detection method, i.e., it provides a single readout of viable cells at the end of the experiment, such a comparison offers a reliable tool to identify antiproliferative activity of compounds that are not cytotoxic. […]

Reported IC50 at 24 h, compound CC(=O)[C@H]1CC=C2C3=CC(=O)[C@@H]4C[C@H]5OC(C)(C)O[C@H]5C[C@]4(C)C3=CC[C@@]21C [Compound 6] : ____
> 100 µM

Next entry: COc1cccc2c1C(=O)c1c(O)c3c(c(O)c1C2=O)C[C@@](O)(C(=O)CO)C[C@@H]3O[C@H]1C[C@H](N)[C@H](O)[C@H](C)O1 [Doxorubicin, reference compound]
1.7 µM

Next entry: CC(=O)N[C@H]1CC[C@@]2(F)C3=CC(=O)[C@@H]4C[C@H]5OC(C)(C)O[C@H]5C[C@]4(C)[C@H]3CC[C@]12C [Compound 14]
> 100 µM

Next entry: CC(=O)[C@H]1CC[C@@]2(O)C3=CC(=O)[C@@H]4C[C@H]5OC(C)(C)O[C@H]5C[C@]4(C)[C@H]3[C@H](O)C[C@]12C [Compound 3]
> 100 µM

Next entry: CC(=O)N[C@H]1CC=C2C3=CC(=O)[C@@H]4C[C@H]5OC(C)(C)O[C@H]5C[C@]4(C)[C@H]3CC[C@@]21C [Compound 13]
35 µM

Next entry: CC(=O)O[C@H]1C[C@@]2(C)C(=C(O)C(=O)C3=C2CC[C@@]2(C)C3=CC[C@@H]2[C@@]2(C)OC(C)(C)O[C@@H]2CCC(C)(C)O)C[C@H]1O [Compound 16, calonysterone 2-acetate 20,22-acetonide]
> 100 µM

Next entry: CC(=O)[C@H]1CC[C@@]2(F)C3=CC(=O)[C@@H]4C[C@H]5OC(C)(C)O[C@H]5C[C@]4(C)C3=CC[C@]12C [Compound 7]
> 100 µM

Next entry: CC(=O)[C@H]1CC[C@@]2(F)C3=CC(=O)[C@@H]4C[C@H]5OC(C)(C)O[C@H]5C[C@]4(C)[C@H]3CC[C@]12C [Compound 11]
> 100 µM

Next entry: CC(=O)[C@H]1CC[C@@]2(O)C3=CC(=O)[C@@H]4C[C@H]5OC(C)(C)O[C@H]5C[C@]4(C)[C@H]3CC[C@]12C [Compound 9, poststerone 2,3-acetonide]
> 100 µM

Next entry: CC(=O)[C@H]1CC[C@@]2(O)C3=CC(=O)[C@@H]4C[C@H]5OC(C)(C)O[C@H]5C[C@]4(C)C3=CC[C@]12C [Compound 5]
> 100 µM

Next entry: CC(=O)[C@H]1CC=C2C3=CC(=O)[C@@H]4C[C@H]5OC(C)(C)O[C@H]5C[C@]4(C)[C@H]3CC[C@@]21C [Compound 10]
> 100 µM
